B1: library; a variant is named by its letters at N, in order (parent)
chain: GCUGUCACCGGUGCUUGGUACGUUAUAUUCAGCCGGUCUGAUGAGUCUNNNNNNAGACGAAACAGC

variants of: B1; assay: normalized RNA/DNA level without ligand (relative to sTRSVctl = 100) (log10 (% of sTRSVctl)); HEK293T overexpressing SLC46A1; higher = less ribozyme self-cleavage, higher mRNA level; conditions: without (6R,S)-folinic acid; ligand present: no
quantity-kind: normalized RNA/DNA level without ligand (log10)

Entry `UCACUU` , normalized RNA/DNA level without ligand (log10) reported as 2.02

// sample `UUGGAG` , its normalized RNA/DNA level without ligand (log10) was 1.71

// `GUUGAC` : normalized RNA/DNA level without ligand (log10) value = 1.95
